- Test system: MDA-MB-436 cells
- method notes: Cell proliferation assay (MDA-MB-436)
- Format: cell-based
- condition description: Homo sapiens, 168 h, 7 days
- Description: Cells are counted, diluted to desired density and 40 μL of cell suspension is added into each 384-well tissue-culture treated plates. Plates are incubated in Tissue Culture incubator at 37° C./5% C02 overnight. Next day, 40 nl test compounds that are prepared from source plates are transferred to the seeded cells from overnight. Plates are incubated at 37° C./5% C02 for a total of 7 days. […]
pIC50: −log10 of the molar value.
Quick reference: pIC50 of the listed items.

1) O=C(NC(C(=O)N1CCC(OC2CCN(CC(=O)N3CCN(C(=O)c4cc(Cc5n[nH]c(=O)c6ccccc56)ccc4F)CC3)CC2)CC1)C1CCCCC1)c1cccc(C2CCCN(C(=O)CNCc3ccc(F)cc3F)C2)c1 (centres unmarked) ... > 8.00
2) Cc1sc(CN2CCCC2c2nnc3n2CCCCC3)nc1C12CC(C(=O)NCCOCCOCCOCCNCC(=O)N3CCN(C(=O)c4cc(Cc5n[nH]c(=O)c6ccccc56)ccc4F)CC3)(C1)C2 (centres unmarked) ... 6.00 to 7.00
3) O=C(CN1CCN(CC2CCN(C(=O)c3c(F)cc(-c4ccncn4)cc3F)CC2)CC1)N1CCN(C(=O)c2cc(Cc3n[nH]c(=O)c4ccccc34)ccc2F)CC1 ... > 8.00
4) O=C(N[C@@H](C(=O)N1CCN(CC2CCN(CC(=O)N3CCN(C(=O)c4cc(Cc5n[nH]c(=O)c6ccccc56)ccc4F)CC3)CC2)CC1)C1CCCCC1)c1cccc(C2CCCN(C(=O)CNC3CC3)C2)c1 (some centres unmarked) ... 7.00 to 8.00
5) CC(C)(C)OC(=O)N[C@@H](C(=O)N1C[C@H]2CC[C@@H](C1)[C@H]2OC1CCN(CC(=O)N2CCN(C(=O)c3cc(Cc4n[nH]c(=O)c5ccccc45)ccc3F)CC2)CC1)C1CCCCC1 ... > 8.00
6) CCc1cccc(-c2cnc(C(=O)N3CCC(CN4CCN(CC(=O)N5CCN(C(=O)c6cc(Cc7n[nH]c(=O)c8ccccc78)ccc6F)CC5)CC4)CC3)c(N)c2)c1 ... 6.00 to 7.00
7) CCc1cccc(-c2cnc(C(=O)N3CCC(CN4CCN(CC(=O)N5CCN(C(=O)c6cc(Cc7n[nH]c(=O)c8ccccc78)ccc6F)CC5)CC4)CC3)c(OC(F)(F)F)c2)c1 ... > 8.00

Query compound follows.
Could you please provide reported pIC50 for O=C(N[C@@H](C(=O)N1CCN(CC2CCN(CC(=O)N3CCN(C(=O)c4cc(Cc5n[nH]c(=O)c6ccccc56)ccc4F)CC3)CC2)CC1)C1CCCCC1)c1cccc(C2CCCN(C(=O)COC3CC3)C2)c1 (some centres unmarked) ? Thanks!
7.00 to 8.00

* * *

Entries and their pIC50
- System: Poly/Mono-ADP Ribose in U2OS cells
- method notes: PAR in cell western assay (parylation) in U2OS cells
- Assay type: cell-based
- condition description: Homo sapiens; U2OS cells, 6 hrs, 2 mM H2O2; read-out: Parylation (U2OS)
pIC50: −log10 of the molar value.

Solved entries:
1. O=C(CN1CCN(CC2CCN(C(=O)c3c(F)cc(-c4ccncn4)cc3F)CC2)CC1)N1CCN(C(=O)c2cc(Cc3n[nH]c(=O)c4ccccc34)ccc2F)CC1 [Compound I-768] ... 7.00 to 8.00
2. CCc1cccc(-c2cnc(C(=O)N3CCC(OC4CCN(CC(=O)N5CCN(C(=O)c6cc(Cc7n[nH]c(=O)c8ccccc78)ccc6F)CC5)CC4)CC3)c(NC(C)=O)c2)c1 [Compound I-404] ... 7.00 to 8.00
3. COC12CCC(CNCC(=O)N3CCCC(c4cccc(C(=O)N[C@@H](C(=O)N5CCN(CC6CCN(CC(=O)N7CCN(C(=O)c8cc(Cc9n[nH]c(=O)c%10ccccc9%10)ccc8F)CC7)CC6)CC5)C5CCCCC5)c4)C3)(CC1)OC2 (some centres unmarked) [Compound I-157] ... 6.00 to 7.00

Item O=C(CN1CCC(OC2CCN(C(=O)c3ncc(-c4ccccc4)cc3F)CC2)CC1)N1CCN(C(=O)c2cc(Cc3n[nH]c(=O)c4ccccc34)ccc2F)CC1 [Compound I-709] : provide pIC50
> 8.00

For the compound CC(C)(C)OC(=O)Nc1cc(-c2cccc(C3COC3)c2)cnc1C(=O)NCCOCCNCC(=O)N1CCN(C(=O)c2cc(Cc3n[nH]c(=O)c4ccccc34)ccc2F)CC1 [Compound I-803] , report pIC50.
7.00 to 8.00

Where these numbers come from: patent US20250127907A1
